Source listed as the supplement of paper PMC10567573.

B1: DVL3 (parent)
chain: SDVVDWLYHNVEGFTDRREARKYA

# Variants of: B1
# Experiment description: protein stability index of a GFP-peptide fusion (GPS, HEK-293T) (PSI 1-6); higher = more stable;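 further: lentivirally expressed fusions sorted by FACS into six bins by GFP to DsRed ratio, PSI derived from sequencing read proportions per bin multiplied by bin number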
# Measurement conditions: c terminus: a fixed tail appended
Measurement name: protein stability index
Reply with just the number.

R17L ... 2.69
A24W ... 1.09

Lab note: next variant to report on.
QUERY: Let me know recorded protein stability index for `H9A` , thanks.
RESULT: 2.37
